Every entry's value here was drawn from patent US6974804B2.

Reported Clarity Visual (assessment score) by item:
- protocol_summary: Visual assessment score (clarity of gel in 1 cm cuvette)
- Format: physicochemical
- condition_description: 9% REF4 plus 1% of the named material; scale −12 to 8

>  <compound>
CCCCCCCCCC(=O)OCC1OC(OC2C(COC(=O)CCCCCCCCC)OC(OC(=O)c3ccccc3)C(OC(=O)CCCCCCCCC)C2OC(=O)CCCCCCCCC)C(OC(=O)CCCCCCCCC)C(OC(=O)CCCCCCCCC)C1OC(=O)CCCCCCCCC (mixture of isomers) [Ex 2.6]

>  <Clarity Visual (assessment score)>
−8

$$$$
>  <compound>
CCCCCCCCCC(=O)OCC1OC(O)C(OC(=O)CCCCCCCCC)C(OC(=O)CCCCCCCCC)C1OC1OC(COC(=O)CCCCCCCCC)C(OC(=O)CCCCCCCCC)C(OC(=O)CCCCCCCCC)C1OC(=O)CCCCCCCCC (mixture of isomers) [REF 6, reference compound]

>  <Clarity Visual (assessment score)>
< −12

$$$$

The record that follows has no Clarity Visual (assessment score) shown yet.
Give recorded Clarity Visual (assessment score). CCCCCCCCCC(=O)OCC1OC(OC2C(COC(=O)CCCCCCCCC)OC(OC(=O)CCCCCCCCC)C(OC(=O)CCCCCCCCC)C2OC(=O)CCCCCCCCC)C(OC(=O)CCCCCCCCC)C(OC(=O)CCCCCCCCC)C1OC(=O)CCCCCCCCC (mixture of isomers) [REF 4, reference compound]
< −12

====

- protocol_summary: Gelling of water-immiscible cosmetic liquids in 96 well glass micro-titre plate
- Assay type: physicochemical
- Set-up: key: gel; g4: gel after overnight (18 hrs) storage at 4° C.; g22: gel after overnight (18 hrs) storage at 22° C.; sg: soft gel; sg22: soft gel after overnight (18 hrs) storage at 22° C.; solution; *: the test at 4° C. was not carried out
- condition_description: 10% cellobiose ester in Mineral oil
recorded_endpoint: gelling of Mineral oil

>  <compound>
CCCCCCCCC(=O)OCC1OC(OC2C(COC(=O)CCCCCCCC)OC(OC(=O)C3CCCC3)C(OC(=O)CCCCCCCC)C2OC(=O)CCCCCCCC)C(OC(=O)CCCCCCCC)C(OC(=O)CCCCCCCC)C1OC(=O)CCCCCCCC (mixture of isomers)

>  <recorded_endpoint>
gelling of Mineral oil

>  <val>
gel

$$$$
>  <compound>
CCCCCCCCCC(=O)OCC1OC(OC2C(COC(=O)CCCCCCCCC)OC(OC(=O)C3CCCCC3)C(OC(=O)CCCCCCCCC)C2OC(=O)CCCCCCCCC)C(OC(=O)CCCCCCCCC)C(OC(=O)CCCCCCCCC)C1OC(=O)CCCCCCCCC (mixture of isomers)

>  <recorded_endpoint>
gelling of Mineral oil

>  <val>
gel

$$$$
>  <compound>
CCCCCCCCCCCCCCCC(=O)OC1OC(COC(=O)CCCCCCCC)C(OC2OC(COC(=O)CCCCCCCC)C(OC(=O)CCCCCCCC)C(OC(=O)CCCCCCCC)C2OC(=O)CCCCCCCC)C(OC(=O)CCCCCCCC)C1OC(=O)CCCCCCCC (mixture of isomers)

>  <recorded_endpoint>
gelling of Mineral oil

>  <val>
g22

$$$$
>  <compound>
CCCCCCCCCC(=O)OCC1OC(OC2C(COC(=O)CCCCCCCCC)OC(OC(=O)CCCCC)C(OC(=O)CCCCCCCCC)C2OC(=O)CCCCCCCCC)C(OC(=O)CCCCCCCCC)C(OC(=O)CCCCCCCCC)C1OC(=O)CCCCCCCCC (mixture of isomers)

>  <recorded_endpoint>
gelling of Mineral oil

>  <val>
gel

$$$$
>  <compound>
CCCCCCCCC(=O)OCC1OC(OC2C(COC(=O)CCCCCCCC)OC(OC(C)=O)C(OC(=O)CCCCCCCC)C2OC(=O)CCCCCCCC)C(OC(=O)CCCCCCCC)C(OC(=O)CCCCCCCC)C1OC(=O)CCCCCCCC (mixture of isomers) [Ex 1.5]

>  <recorded_endpoint>
gelling of Mineral oil

>  <val>
gel

$$$$
>  <compound>
CCCCCCCCC(=O)OCC1OC(OC2C(COC(=O)CCCCCCCC)OC(OC(=O)CCCCC)C(OC(=O)CCCCCCCC)C2OC(=O)CCCCCCCC)C(OC(=O)CCCCCCCC)C(OC(=O)CCCCCCCC)C1OC(=O)CCCCCCCC (mixture of isomers)

>  <recorded_endpoint>
gelling of Mineral oil

>  <val>
g22

$$$$

Read the entry CCCCCCCCCCCCCC(=O)OC1OC(COC(=O)CCCCCCCC)C(OC2OC(COC(=O)CCCCCCCC)C(OC(=O)CCCCCCCC)C(OC(=O)CCCCCCCC)C2OC(=O)CCCCCCCC)C(OC(=O)CCCCCCCC)C1OC(=O)CCCCCCCC (mixture of isomers) and write its reported gelling of Mineral oil.
g22

Note gelling of Mineral oil for the compound shown: CCCCCCCCC(=O)OCC1OC(OC2C(COC(=O)CCCCCCCC)OC(OC(=O)C3CCCCC3)C(OC(=O)CCCCCCCC)C2OC(=O)CCCCCCCC)C(OC(=O)CCCCCCCC)C(OC(=O)CCCCCCCC)C1OC(=O)CCCCCCCC (mixture of isomers)
g22

Supply measured gelling of Mineral oil of CCCCCCCCC(=O)OCC1OC(OC2C(COC(=O)CCCCCCCC)OC(OC(=O)CCCC)C(OC(=O)CCCCCCCC)C2OC(=O)CCCCCCCC)C(OC(=O)CCCCCCCC)C(OC(=O)CCCCCCCC)C1OC(=O)CCCCCCCC (mixture of isomers) in your reply.
g22

Name the recorded gelling of Mineral oil of the compound listed here: CCCCCCCCCC(=O)OCC1OC(OC2C(COC(=O)CCCCCCCCC)OC(OC(=O)c3ccccc3)C(OC(=O)CCCCCCCCC)C2OC(=O)CCCCCCCCC)C(OC(=O)CCCCCCCCC)C(OC(=O)CCCCCCCCC)C1OC(=O)CCCCCCCCC (mixture of isomers) [Ex 2.1]
gel

Indicate its recorded gelling of Mineral oil; the compound in question is CCCCCCCCC(=O)OCC1OC(OC2C(COC(=O)CCCCCCCC)OC(OC(=O)c3ccccc3)C(OC(=O)CCCCCCCC)C2OC(=O)CCCCCCCC)C(OC(=O)CCCCCCCC)C(OC(=O)CCCCCCCC)C1OC(=O)CCCCCCCC (mixture of isomers) [Ex 1.1]
gel

Report measured gelling of Mineral oil; entry is CCCCCCCCC(=O)OCC1OC(OC2C(COC(=O)CCCCCCCC)OC(OC(C)=O)C(OC(=O)CCCCCCCC)C2OC(=O)CCCCCCCC)C(OC(=O)CCCCCCCC)C(OC(=O)CCCCCCCC)C1OC(=O)CCCCCCCC (mixture of isomers) [Ex 1.7]
gel

Output gelling of Mineral oil of CCCCCCCCC(=O)OCC1OC(OC2C(COC(=O)CCCCCCCC)OC(OC(=O)CCCCCC)C(OC(=O)CCCCCCCC)C2OC(=O)CCCCCCCC)C(OC(=O)CCCCCCCC)C(OC(=O)CCCCCCCC)C1OC(=O)CCCCCCCC (mixture of isomers)
g22

Report measured gelling of Mineral oil; entry is CCCCCCCCC(=O)OCC1OC(OC2C(COC(=O)CCCCCCCC)OC(OC(C)=O)C(OC(=O)CCCCCCCC)C2OC(=O)CCCCCCCC)C(OC(=O)CCCCCCCC)C(OC(=O)CCCCCCCC)C1OC(=O)CCCCCCCC (mixture of isomers) [Ex 1.6]
gel

Please supply the value of reported gelling of Mineral oil for the item CCCCCCCCCC(=O)OCC1OC(OC2C(COC(=O)CCCCCCCCC)OC(OC(=O)c3ccc4ccccc4c3)C(OC(=O)CCCCCCCCC)C2OC(=O)CCCCCCCCC)C(OC(=O)CCCCCCCCC)C(OC(=O)CCCCCCCCC)C1OC(=O)CCCCCCCCC (mixture of isomers)
gel

For the compound CCCCCCCCC(=O)OCC1OC(OC2C(COC(=O)CCCCCCCC)OC(OC(=O)c3ccc4ccccc4c3)C(OC(=O)CCCCCCCC)C2OC(=O)CCCCCCCC)C(OC(=O)CCCCCCCC)C(OC(=O)CCCCCCCC)C1OC(=O)CCCCCCCC (mixture of isomers) [Ex 1.3] , give its measured gelling of Mineral oil value.
g22
